Biological target: T1, glucocorticoid-induced tumor necrosis factor receptor (GITR) (human, UniProt Q9Y5U5 26-241)
T1 chain: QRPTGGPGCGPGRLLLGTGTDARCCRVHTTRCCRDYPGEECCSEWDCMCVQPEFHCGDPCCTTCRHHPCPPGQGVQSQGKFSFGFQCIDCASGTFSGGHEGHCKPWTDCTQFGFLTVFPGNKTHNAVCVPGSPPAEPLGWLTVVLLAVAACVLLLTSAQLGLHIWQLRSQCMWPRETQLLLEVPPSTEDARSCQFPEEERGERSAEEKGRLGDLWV
Assay: BLI
observedProperty: Kd (nM)
Report the figure in nM without appending any unit label.

Reference set, count: 2
binder: mAb #10-116 (antibody, V domains shown) VH: EVQLVQSGADVKKPGASVKVSCKASGYTFTGYYIHWVRQAPGQGLEWMGWINPNSGGTNYAQKFQGRVTMTRDTSISTAYMELSRLRSDDTAVYFCVREVKDYYYYMDVWGRGTTVTVSS VL: NFMLTQPHSVSESPGKTVTISCTRSSGSIASNSVQWYLQRPGSAPTTLIFDNKQRPSGVPDRFSGSIDSSSNSASLSISGLTTEDEADYFCQSYDDSEQVVFGGGTKLTVLS
result: 4.77
//
binder: mAb #13-169 (antibody, V domains shown) VH: EVQLVQSGAEVKRPGASLKVSCKASGYTFTSHYIHWVRQAPGQGLEWMGWINTGNGDTRYSQRFQGRVTVTRDTSASTVYMELSSLRSEDTAVYYCARESSSSWFVAFDVWGQGTTVTVSS VL: QPVLTQPPSVSLAPGQTARITCSEKNIRSKRVHWYQQKPGQAPVLVMYSDNGRRSGIPDRFSGSNSGNTATLTITRVEAGDEGDFYCQVWDPITDQVVFGGGTKLTVLG
result: 3.21

The record that follows has no Kd shown yet.
Param item = mAb #11-126 (antibody, V domains shown) VH: EVQLVESGAEVKKPGASVKVSCKASGYTFTGYYMHWVRQAPGQGLEWLGWVNPHSGGTNYAQKFQGRVTMTRDTSISTAYMELSRLRSDDTAVYYCARETDISANYHFDYWGQGTLVTVSS VL: QSALTQPASVSGSPGQSITISCTGTSSDVGSYNAVSWYQHHPGKAPKLMIYEVSKRPSGVSNRFSGSKSGNTASLTISGLRAEDEADYYCATWDDSLKGPVFGGGTKLTVLG ; retrieve measured Kd.
2.8
